test: in vitro; details: human, Caco-2
experimental_readout: Papp A→B at 120 min, 2 μmol/L (×10⁻⁶ cm/s)
Express your answer in ×10⁻⁶ cm/s, writing the number without its unit.

Give Papp A→B at 120 min, 2 μmol/L for COCCc1ccc(OCC(O)CNC(C)C)cc1 (stereo not shown)
13.1
